The entries below are paired with their reported switch fluorescence ratio.
test system: ATP; experiment: switch fluorescence ratio, 500 uM ATP over buffer (Cy3 cluster intensity, sum of 5 cycles each) (fold (ratio)); higher = stronger signal-on switching upon ATP binding; sequences stand for … in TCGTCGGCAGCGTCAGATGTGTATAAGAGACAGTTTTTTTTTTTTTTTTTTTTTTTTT…TC; details: aptamer strand: ATP DNA aptamer (quencher-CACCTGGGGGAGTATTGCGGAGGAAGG + anchor), 100 nM annealed; ATP concentration: 500 uM;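 also: ATP exposure 15 min at 22 °C before imaging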
Keep the answer to the number alone.

TGGGGCTTGG on ATP gives switch fluorescence ratio = 1.01

----------
test system: ATP; test: switch fluorescence ratio, 500 uM ATP over buffer (Cy3 cluster intensity, sum of 5 cycles each) (fold (ratio)); higher = stronger signal-on switching upon ATP binding; sequences stand for … in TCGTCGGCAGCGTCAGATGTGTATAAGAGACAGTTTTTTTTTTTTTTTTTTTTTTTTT…TC; settings: aptamer strand: ATP DNA aptamer (quencher-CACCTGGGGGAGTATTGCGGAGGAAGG + anchor), 100 nM annealed; ATP concentration: 500 uM;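 also: ATP exposure 15 min at 22 °C before imaging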
The entries below are paired with their reported switch fluorescence ratio.

     residues               readout_name  reported_result
0  GGGGTAGAGT  switch fluorescence ratio             0.98
1  ATAAACGACT  switch fluorescence ratio             1.06
2  TTTTATACGG  switch fluorescence ratio            0.987
3  TCTCTATAGG  switch fluorescence ratio            0.983
4  ATTTGTGTGG  switch fluorescence ratio            0.973
5  TATGATGGGC  switch fluorescence ratio            0.958
6   TTTTTTGGG  switch fluorescence ratio            0.969
7  GGAACACTGT  switch fluorescence ratio            0.995

CCTGTTGCGA on ATP gives switch fluorescence ratio = 2.66

CAAGACAGCT on ATP gives switch fluorescence ratio = 1.02

AAGGGAGAAC on ATP gives switch fluorescence ratio = 0.986

----------
tested on: ATP; assay: switch fluorescence ratio, 500 uM ATP over buffer (Cy3 cluster intensity, sum of 5 cycles each) (fold (ratio)); higher = stronger signal-on switching upon ATP binding; sequences stand for … in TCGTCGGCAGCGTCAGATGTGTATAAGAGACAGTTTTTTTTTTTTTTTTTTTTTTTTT…TC; conditions: aptamer strand: ATP DNA aptamer (quencher-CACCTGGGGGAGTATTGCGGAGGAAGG + anchor), 100 nM annealed; ATP concentration: 500 uM;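 also: ATP exposure 15 min at 22 °C before imaging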
readout.name: switch fluorescence ratio
Keep the answer to the number alone.

>>> print(df.to_string())
     residues  reported_result
0  AATTATTGTT            0.996

Okay, next one:
switch fluorescence ratio reading for CGGGGCTGTG : 1

----------
test system: ATP; test: switch fluorescence ratio, 500 uM ATP over buffer (Cy3 cluster intensity, sum of 5 cycles each) (fold (ratio)); higher = stronger signal-on switching upon ATP binding; sequences stand for … in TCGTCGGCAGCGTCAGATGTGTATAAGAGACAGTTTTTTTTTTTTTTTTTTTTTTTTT…TC; conditions: aptamer strand: ATP DNA aptamer (quencher-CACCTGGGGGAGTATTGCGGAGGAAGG + anchor), 100 nM annealed; ATP concentration: 500 uM;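 also: ATP exposure 15 min at 22 °C before imaging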
readout.name: switch fluorescence ratio
Keep the answer to the number alone.

In [3]: df
Out[3]:
     residues               readout_name  reported_result
0  CATGATTAGT  switch fluorescence ratio            0.951

switch fluorescence ratio reading for TGGGGGTGGC : 1.01

switch fluorescence ratio reading for GGTACCAGGC : 1.02

switch fluorescence ratio reading for AGGCGGGCGT : 0.962

switch fluorescence ratio reading for ACCAGGTCTA : 1.07

switch fluorescence ratio reading for GATGGACGTT : 0.995

----------
tested on: ATP; test: switch fluorescence ratio, 500 uM ATP over buffer (Cy3 cluster intensity, sum of 5 cycles each) (fold (ratio)); higher = stronger signal-on switching upon ATP binding; sequences stand for … in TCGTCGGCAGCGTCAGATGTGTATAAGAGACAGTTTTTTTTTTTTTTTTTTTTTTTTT…TC; details: aptamer strand: ATP DNA aptamer (quencher-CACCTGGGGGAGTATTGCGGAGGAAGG + anchor), 100 nM annealed; ATP concentration: 500 uM;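 also: ATP exposure 15 min at 22 °C before imaging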
readout.name: switch fluorescence ratio
Keep the answer to the number alone.

>>> df
     residues  reported_result
0  AATAATCGAG             1.03
1  GACTGCTGTG             1.01
2  TGTGTGGGTT             1.01
3  TTACATGAAT             1.04
4  GGGAAAATAG             0.99

switch fluorescence ratio reading for CCAGGTAACA : 1.03

----------
test system: ATP; assay: switch fluorescence ratio, 500 uM ATP over buffer (Cy3 cluster intensity, sum of 5 cycles each) (fold (ratio)); higher = stronger signal-on switching upon ATP binding; sequences stand for … in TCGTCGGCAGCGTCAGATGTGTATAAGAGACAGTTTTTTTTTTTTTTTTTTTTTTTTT…TC; conditions: aptamer strand: ATP DNA aptamer (quencher-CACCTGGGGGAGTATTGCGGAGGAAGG + anchor), 100 nM annealed; ATP concentration: 500 uM;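 also: ATP exposure 15 min at 22 °C before imaging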
The entries below are paired with their reported switch fluorescence ratio.
Keep the answer to the number alone.

>>> print(df.to_string())
     residues               readout_name  reported_result
0  AATTCAACAC  switch fluorescence ratio             1.05

Okay, next one:
switch fluorescence ratio reading for CAGGAAGGGG : 1

----------
The entries below are paired with their reported switch fluorescence ratio.
tested on: ATP; assay: switch fluorescence ratio, 500 uM ATP over buffer (Cy3 cluster intensity, sum of 5 cycles each) (fold (ratio)); higher = stronger signal-on switching upon ATP binding; sequences stand for … in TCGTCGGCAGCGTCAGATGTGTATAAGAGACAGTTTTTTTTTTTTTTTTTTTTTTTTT…TC; conditions: aptamer strand: ATP DNA aptamer (quencher-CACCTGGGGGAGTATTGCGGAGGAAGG + anchor), 100 nM annealed; ATP concentration: 500 uM;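 also: ATP exposure 15 min at 22 °C before imaging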

     residues               readout_name  reported_result
0  GTGGTGAAGG  switch fluorescence ratio             0.99
1  AAGGAGGGGT  switch fluorescence ratio            0.997
2  TTTGTTTCAA  switch fluorescence ratio            0.982
3  TTTAAGAAAT  switch fluorescence ratio            0.986
4  CGCTACTTAT  switch fluorescence ratio             1.12

GGCTCAGGGC on ATP gives switch fluorescence ratio = 0.979

----------
test system: ATP; test: switch fluorescence ratio, 500 uM ATP over buffer (Cy3 cluster intensity, sum of 5 cycles each) (fold (ratio)); higher = stronger signal-on switching upon ATP binding; sequences stand for … in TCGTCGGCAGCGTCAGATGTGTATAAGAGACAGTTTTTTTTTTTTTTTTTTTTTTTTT…TC; details: aptamer strand: ATP DNA aptamer (quencher-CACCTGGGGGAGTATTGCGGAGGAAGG + anchor), 100 nM annealed; ATP concentration: 500 uM;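 also: ATP exposure 15 min at 22 °C before imaging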
Lab note: compare switch fluorescence ratio against 1. Equal or greater, write rule met. Smaller, write rule not met.

Completed entries (count: 7):
     residues  answer_label
0  TTCAAAAAAA  rule not met
1  CAGTCTAAGA      rule met
2  GAAGGGGGGC      rule met
3  ATAACCGTGG      rule met
4  GTTCAGATTG      rule met
5  ACCCTGCGAG      rule met
6  TTGTGTTTTG      rule met

Here is another sequence to look at.
Incoming: Decide: switch fluorescence ratio of AGTGTTGCCG >= 1?
Outgoing: rule not met

----------
tested on: ATP; assay: switch fluorescence ratio, 500 uM ATP over buffer (Cy3 cluster intensity, sum of 5 cycles each) (fold (ratio)); higher = stronger signal-on switching upon ATP binding; sequences stand for … in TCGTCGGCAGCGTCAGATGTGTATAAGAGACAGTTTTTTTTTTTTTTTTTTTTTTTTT…TC; settings: aptamer strand: ATP DNA aptamer (quencher-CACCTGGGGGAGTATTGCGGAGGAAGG + anchor), 100 nM annealed; ATP concentration: 500 uM;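 also: ATP exposure 15 min at 22 °C before imaging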
Lab note: compare switch fluorescence ratio against 1. Equal or greater, write criterion met. Smaller, write criterion not met.

Completed entries (count: 5):
In [3]: df
Out[3]:
     residues   answer_label
0  TCCTTTTAAC  criterion met
1  AGGCAAACCC  criterion met
2  TTTAAAGGGG  criterion met
3  AAACGGGGAC  criterion met
4  TGCGTGTGTC  criterion met

Incoming: Decide: switch fluorescence ratio of TGGGTATCTT >= 1?
Outgoing: criterion met

Incoming: Decide: switch fluorescence ratio of GCGGTACGCG >= 1?
Outgoing: criterion not met
